# System: CCRF-CEM
# TEST_PROTOCOL: NCI tumour cell line growth inhibition, 48 h
Activity calls are given as the source filed them. Cut-off read from the data, not from the text of the source: active = GI50 up to about 1.1 µM and inactive = higher.
Pick one: active, inactive

A selection of reference data follows.
Ask: Which outcome was entered for the compound CCN(CC)CCC(=O)c1ccc(Sc2ccc(F)cc2)cc1 in this test?
Result: inactive

Ask: Which outcome was entered for the compound CC(=O)Oc1cc2c(=O)oc3c(OC(C)=O)c(OC(C)=O)c(OC(C)=O)c4c(=O)oc(c1OC(C)=O)c2c34 in this test?
Result: inactive

***
Ask: Which outcome was entered for the compound CCOC(=O)c1c(N2CCOCC2)[nH]c(=O)c(C(c2ccc(Cl)c([N+](=O)[O-])c2)c2c(O)c(C(=O)OCC)c(N3CCOCC3)[nH]c2=O)c1O in this test?
Result: inactive

Ask: Which outcome was entered for the compound O=C1/C(=C\c2ccc([N+](=O)[O-])cc2)CS(=O)(=O)C/C1=C/c1ccc([N+](=O)[O-])cc1 in this test?
Result: active

Ask: Which outcome was entered for the compound CNC(=O)C1CCCN1C(=O)C(Cc1c[nH]cn1)NC(=O)C1CCC(=O)N1 (stereo not given) in this test?
Result: inactive

Ask: Which outcome was entered for the compound O=C1C2C3C=C4c5ccccc5N(c5ccccc5)C4([C@@H]2C(=O)N1c1ccc(F)cc1)[C@H]1C(=O)N(c2ccc(F)cc2)C(=O)[C@@H]31 (stereo not given in full) in this test?
Result: inactive

====

# Tested on: NCI-H522
# TEST_PROTOCOL: NCI tumour cell line growth inhibition, 48 h
The source made the active and inactive calls. Cut-off read from the data, not from the text of the source: active = GI50 up to about 1.1 µM and inactive = higher.
Pick one: active, inactive

A selection of reference data follows.
Ask: Which outcome was entered for the molecule O/N=C1/C(=C/c2ccccc2)CCCC1C(NO)c1ccccc1 (stereo not given) in this test?
Result: inactive

Ask: Which outcome was entered for the molecule COc1cc(Nc2nc3ccc(C(F)(F)F)cc3nc2-c2ccccc2)cc(OC)c1OC in this test?
Result: inactive

Ask: Which outcome was entered for the molecule CCO/C=N/C1=C(C#N)SC2=N/C(=C\c3ccccc3)C(=O)N21 in this test?
Result: inactive

Ask: Which outcome was entered for the molecule O=C(NO)c1ccc(OCc2ccccc2)cc1 in this test?
Result: inactive

Ask: Which outcome was entered for the molecule CSc1nc(=S)[nH]c2c1c(C)nn2-c1ccccc1 in this test?
Result: inactive

Ask: Which outcome was entered for the molecule CC(C)[C@]12O[C@H]1[C@@H]1O[C@@]13[C@@]1(C)CCC4=C(COC4=O)[C@@H]1C[C@@H]1O[C@@]13C2=O [TRIPTONIDE] in this test?
Result: active

***
Ask: Which outcome was entered for the molecule CC1=C(C#N)C(N)=C2C(C)=C(C#N)C(N)=C12 in this test?
Result: inactive

Ask: Which outcome was entered for the molecule O=C(NNc1ccccc1)/C(=C/c1ccc2c(c1)OCO2)NC(=O)c1ccccc1 in this test?
Result: inactive

Ask: Which outcome was entered for the molecule CCOC(=O)C1Oc2ccc([N+](=O)[O-])c3c2C1(O)CCC3 (stereo not given) in this test?
Result: inactive

Ask: Which outcome was entered for the molecule Cc1[nH]c2ccccc2c1/C=N/c1ccc(Oc2ccccc2)cc1 in this test?
Result: inactive

====

# Tested on: NCI-H226
# TEST_PROTOCOL: NCI tumour cell line growth inhibition, 48 h
Activity calls are given as the source filed them. No stated cut-off is given here; in the data, active = GI50 up to about 1.1 µM and inactive = higher.
Below, each of the compounds is paired with its reported GI50 value.

Below, each entry is followed by its recorded GI50 result.
For this compound ( c1ccc(-c2sc(-c3cccs3)cc2Cc2cccs2)cc1 ), measured GI50 is > 10 µM (inactive)

For this compound ( BrC1=CC=C2NC=CC3=CC=NC1C32 (stereo not given) ), measured GI50 is 14.2 µM (inactive)

For this compound ( COC(=O)c1ccc(NCC2=C(Br)C(=O)C=CC2=O)cc1Cl ), measured GI50 is 74.8 µM (inactive)

For this compound ( CC(C)(C)c1cc2c(OP(c3ccccc3)c3ccccc3)c(c1)Cc1cc(C(C)(C)C)cc(c1OP(c1ccccc1)c1ccccc1)Cc1cc(C(C)(C)C)cc(c1OP(c1ccccc1)c1ccccc1)Cc1cc(C(C)(C)C)cc(c1OP(c1ccccc1)c1ccccc1)C2 ), measured GI50 is > 5 µM (inactive)

Now examine the next entry.
For this compound ( CCNc1ccc2c(c1)Cc1ccccc1-2 ), measured GI50 is 54.7 µM (inactive)

src = ChEMBL document CHEMBL1201862
